- MEASUREMENT TARGET: rh beta tryptase (Homo sapiens)
- Construct: purchased Promega
- Sequence (P20231 31-275): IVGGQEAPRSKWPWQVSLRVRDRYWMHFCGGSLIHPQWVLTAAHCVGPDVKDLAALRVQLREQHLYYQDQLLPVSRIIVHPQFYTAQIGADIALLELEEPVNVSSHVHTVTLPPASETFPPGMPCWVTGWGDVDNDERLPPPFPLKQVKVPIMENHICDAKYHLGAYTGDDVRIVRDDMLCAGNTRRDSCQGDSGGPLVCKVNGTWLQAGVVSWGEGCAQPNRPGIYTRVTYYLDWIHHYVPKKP
- ASSAY REMARKS: Tryptase inhibition test (cleavage of N-p-tosyl-Gly-Pro-Lys-para-nitroaniline, p-nitroaniline measured at 405 nm)
- Format: biochemical
- ASSAY CONDITIONS: inhibition of rh beta tryptase at 10 μM test substance; substrate N-p-tosyl-Gly-Pro-Lys-para-nitroaniline 0.6 mM, pH 7.4, 37° C., 5 minutes
The entries below come with measured inhibition at 10 µM values attached.
Only the number, expressed in %, is required.

Worked cases, inhibition at 10 µM given:
{"columns": ["MOLECULE", "inhibition at 10 µM, %"],
 "data": [
  ["CCOCCCn1c(CCc2ccc(C(=N)N)cc2)nc2cc(C(=O)N(CCN)Cc3ccccc3)ccc21 [Example 294]", 69],
  ["CCCCN(CCCC)CCCn1c(CCc2ccc(C(=N)N)cc2)nc2cc(C(=O)N(CCCc3ccccc3)Cc3ccc(CN)cc3)ccc21 [Example 167]", 52],
  ["N=C(N)c1ccc(CCc2nc3cc(C(=O)N(CCN)CC4CCCCC4)ccc3n2CC2CCCO2)cc1 (stereo not shown) [Example 354]", 58],
  ["N=C(N)c1ccc(CCc2nc3cc(C(=O)N(CCCc4ccccc4)Cc4ccc(CN)cc4)ccc3n2CCC2CCCCC2)cc1 [Example 169]", 52],
  ["N=C(N)c1ccc(CCc2nc3cc(C(=O)N(CCN)CC4CCCCC4)ccc3n2Cc2cccs2)cc1 [Example 355]", 51],
  ["N=C(N)c1ccc(CCc2nc3cc(C(=O)N(CCN)Cc4cccc(C(F)(F)F)c4)ccc3n2CC2CCCO2)cc1 (stereo not shown) [Example 402]", 51]
]}

For the molecule CCCCN(CCN)C(=O)c1ccc2c(c1)nc(CCc1ccc(C(=N)N)cc1)n2CCCN1CCN(c2ccccc2C)CC1 [Example 288] , report inhibition at 10 µM.
65

* * *

The entries below come with measured IC50 values attached.
- MEASUREMENT TARGET: rh beta tryptase (Homo sapiens)
Only the number, expressed in nM, is required.

Worked cases, IC50 given:
{"columns": ["MOLECULE", "MEASUREMENT TARGET", "EXPERIMENTAL RESULT"],
 "data": [
  ["CC(C)Oc1cccc(N2CCN(C(=O)c3ccc4c(c3)nc(CCc3ccc(C(=N)N)cc3)n4C)CC2)c1 [Example 49]", "rh beta tryptase (Homo sapiens)", 152],
  ["CCc1cccc(N(CCC(=N)N)C(=O)c2ccc3c(c2)nc(CCc2ccc(C(=N)N)cc2)n3C)c1 [Example 22]", "rh beta tryptase (Homo sapiens)", 56],
  ["Cl.Cl.Cn1c(CCc2ccc(C(=N)N)cc2)nc2cc(C(=O)N(CCN(Cc3ccccc3)Cc3ccccc3)C3CCCCC3)ccc21 [Example 2]", "rh beta tryptase (Homo sapiens)", 153],
  ["Cn1c(CCc2ccc(C(=N)N)cc2)nc2cc(C(=O)N(CCC(=N)N)C3CCCCCCC3)ccc21 [Example 25]", "rh beta tryptase (Homo sapiens)", 55],
  ["Cn1c(CCc2ccc(CN)cc2)nc2cc(C(=O)N(CCC(c3ccccc3)c3ccccc3)Cc3ccc(CN)cc3)ccc21 [Example 43]", "rh beta tryptase (Homo sapiens)", 319],
  ["Cc1ccccc1N1CCCN(C(=O)c2ccc3c(c2)nc(CCc2ccc(CN)cc2)n3C)CC1 [Example 41]", "rh beta tryptase (Homo sapiens)", 172]
]}

For the next question, use this molecule.
For the molecule N=C(N)c1ccc(CCc2nc3cc(C(=O)N(CCN)Cc4ccccc4F)ccc3n2CC2CC2)cc1 [Example 410] , report IC50.
626

Cited source: patent US6512000B1
